Sourced from BindingDB's records for doi:10.1021/acsmedchemlett.6b00299

Assay comment: Inhibition of human serum factor D-mediated complement activation in rabbit erythrocytes assessed as reduction in rabbit erythrocyte hemolysis preincubated with human serum for 15 mins followed by addition of rabbit erythrocytes and Mg-EGTA measured after 30 mins
Measure: IC50

>>> assay_value("NC(=O)c1nn(CC(=O)N2[C@@H]3C[C@@H]3C[C@H]2C(=O)Nc2cccc(Br)n2)c2ncccc12")
"47 nM"
>>> assay_value("NC(=O)c1nn(CC(=O)N2CCS[C@H]2C(=O)Nc2cccc(Br)n2)c2ncccc12")
"205 nM"
